system: ATP; assay: switch fluorescence ratio, 500 uM ATP over buffer (Cy3 cluster intensity, sum of 5 cycles each) (fold (ratio)); higher = stronger signal-on switching upon ATP binding; sequences stand for … in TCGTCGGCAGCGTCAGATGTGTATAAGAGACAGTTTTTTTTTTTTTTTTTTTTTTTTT…TC; details: aptamer strand: ATP DNA aptamer (quencher-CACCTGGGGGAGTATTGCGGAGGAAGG + anchor), 100 nM annealed; ATP concentration: 500 uM;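 further: ATP exposure 15 min at 22 °C before imaging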
Would you please tag the item 1 when its switch fluorescence ratio is 1 or above, and -1 when it is below?

Please review the following examples before continuing.
   query_sequence  classification
0      GACGATTATA               1
1      AGCGATTTAT               1
2      AGTTGTATGT              -1
3      TCGTAGAGTG              -1

Moving on to another sequence below.
Request: I'd appreciate it if you could say whether CGGTAGTCGG has switch fluorescence ratio at least equal to 1.
Response: 1

Value source: the supplement of paper PMC10126150
